Entry source: patent US20230048888A1

experiment: Pharmacokinetics of acetate of Compound 22 in SD rats with single and repeated administration; type: in vivo; settings: Sprague-Dawley, rat, plasma, Group 1 IV 2.0 mg/kg single, Female
endpoint.label: C0 (ng/mL)

compound="CC(=O)O.Nc1nc(NCCc2ccc(NC3COC3)cc2)nc2nc(-c3ccco3)nn12 [Acetate of Compound 22]" value=8140

* * *

experiment: Pharmacokinetics of acetate of Compound 22 in SD rats with single and repeated administration; type: in vivo; conditions: male, Sprague-Dawley, rat, plasma, po, 63 mg/kg, Group 5 PO 63 mg/kg repeated, Day 1, Male, read-out: T1/2 (converted)
endpoint.label: half-life (h)

molecule="CC(=O)O.Nc1nc(NCCc2ccc(NC3COC3)cc2)nc2nc(-c3ccco3)nn12 [Acetate of Compound 22]" endpoint_label=half-life value=4.26
